# System: MDA-MB-231
# experimental protocol: Cytotoxicity against human MDA-MB-231 cells
# Format: functional, cell-based
reported endpoint: pIC50
// pIC50 here means minus log10 of the molar concentration (mol/L)

The cases that follow already have their pIC50 on record.
O=C1C(=O)N(CCc2cccc(Br)c2)c2c(Br)cc(Br)cc21: 5.57
O=C1C(=O)N(CCc2ccc(Br)cc2)c2c(Br)cc(Br)cc21: 5.70
COc1cccc(CCN2C(=O)C(=O)c3cc(Br)cc(Br)c32)c1: 5.28
O=C1C(=O)N(CCc2ccccc2)c2c(Br)cc(Br)cc21: 5.36
O=C1C(=O)N(Cc2cccc3ccccc23)c2c(Br)cc(Br)cc21: 5.60

Ask | Look at this molecule and give its reported pIC50. O=C1C(=O)N(Cc2ccc3ccccc3c2)c2c(Br)cc(Br)cc21
Reply | 5.59

Ask | Entry under review: COc1ccc(CCN2C(=O)C(=O)c3cc(Br)cc(Br)c32)cc1 . Reported pIC50?
Reply | 5.35

---

# Tested on: MCF7
# experimental protocol: Cytotoxicity against human MCF7 cells
# Format: functional, cell-based
reported endpoint: IC50 (µM)
# value in µM; strip the unit string

Examples with answers:
O=C1C(=O)N(Cc2cccc3ccccc23)c2c(Br)cc(Br)cc21: 7.71
O=C1C(=O)N(CCc2cccc(Br)c2)c2c(Br)cc(Br)cc21: 4.04
O=C1C(=O)N(Cc2ccc3ccccc3c2)c2c(Br)cc(Br)cc21: 3.5

The record that follows has no IC50 shown yet.
Ask | Entry O=C1C(=O)N(CCc2ccc(Br)cc2)c2c(Br)cc(Br)cc21 : reported IC50 = ?
Reply | 6.02
